protein stability index values for the sequences below.
# System: Saccharomyces cerevisiae
# experiment-summary: protein stability index of tFT-peptide fusion (C-terminal peptide) (PSI (0-1 scale)); higher = more stable (slower turnover)
# applied-conditions: genetic background: wild type; temperature: 30 C

Worked examples, 5 sequences total:
sequence-chain	tested-target	protein stability index
PKWTDCEGDLTT [DET1 C-terminal 12 aa]	Saccharomyces cerevisiae	0.739
ASYIQSREICLV [GNT1 C-terminal 12 aa]	Saccharomyces cerevisiae	0.586
GTVNYAGLHDEL [SED4 C-terminal 12 aa]	Saccharomyces cerevisiae	0.723
ALLDGFVTAAGY [DAK2 C-terminal 12 aa]	Saccharomyces cerevisiae	0.728
LQAVAVAVSTKK [FAS2 C-terminal 12 aa]	Saccharomyces cerevisiae	0.65

The sequence identified as NNVPPIHPSLLH [NGR1 C-terminal 12 aa] registered its protein stability index at 0.695

Form: sequence = KVKCALERKPYL [ZAP1 C-terminal 12 aa] ; protein stability index = 0.675

For this sequence ( FKSTPIIYSNVI [YER006C-A C-terminal 12 aa] ), measured protein stability index is 0.642

Entry KHGVSAVKRYLR [CBP1 C-terminal 12 aa] — recorded protein stability index = 0.68

Value of protein stability index reported for the sequence DYKTKRNPSVLH [ISU2 C-terminal 12 aa] is 0.711

Consider KKHSMKSRFKPY [YNL035C C-terminal 12 aa] . Its measured protein stability index is 0.712

Looking up PRDEQDSRKRNR [IBD2 C-terminal 12 aa] , I found its protein stability index recorded as 0.732

* * *

Recorded protein stability index values for a group of sequences are listed next.
# Tested on: Saccharomyces cerevisiae
# experiment-summary: protein stability index of tFT-peptide fusion in deletion strain of DOA10 (PSI (0-1 scale)); higher = more stable (slower turnover)

Take a look at these entries with their results.
CLVSLPIDLFFR 0.698
RSLRDLLPLYFR 0.702
GLYFCSVGCWFR 0.607
AITLPMCPLLGR 0.607
RSLRVLGPLYFR 0.687
CLVSHPILLFFR 0.617
RSLRVLLPWYFR 0.666
RSLRVLLPHYFR 0.683
CLVSLPILLFAR 0.239
RSLRVLLPNYFR 0.673

The sequence RSLRVLLPLLFR showed protein stability index equal to 0.661

* * *

Below, each entry is listed alongside its reported protein stability index.
# Tested on: Saccharomyces cerevisiae
# experiment-summary: protein stability index of tFT-peptide fusion (C-terminal peptide) (PSI (0-1 scale)); higher = more stable (slower turnover)
# applied-conditions: genetic background: das1 deletion; temperature: 37 C
Reply with the value as a number alone.

Record GACRVSSCVVVC . Reported protein stability index: 0.571

Memo: PLLVVPVPRALY , reported protein stability index: 0.733

Data point: QRAVGLANFTIK ; protein stability index = 0.733

Please fill in: protein stability index reported for FLAFLEPRVCCA = 0.354

* * *

# Test system: Saccharomyces cerevisiae
# experiment-summary: protein stability index of tFT-peptide fusion (C-terminal peptide) (PSI (0-1 scale)); higher = more stable (slower turnover)
# applied-conditions: genetic background: das1 deletion; temperature: 30 C
Everything with protein stability index lower than 0.7 is False; everything else, including exactly 0.7, is True.

sequence-chain	category
ALLDGFVTAAGY [DAK2 C-terminal 12 aa]	True

Here is another sequence to look at.
Query: Evaluate TAEPNRNVNQMP [YDL218W C-terminal 12 aa] : protein stability index at minimum 0.7?
Result: False

* * *

# System: Saccharomyces cerevisiae
# experiment-summary: protein stability index of tFT-peptide fusion (C-terminal peptide) (PSI (0-1 scale)); higher = more stable (slower turnover)
# applied-conditions: genetic background: wild type; temperature: 37 C
Tick class 1 if protein stability index is 0.5 or greater. Tick class 0 if protein stability index is less than 0.5.

Example entries and their recorded answers appear below.
FASVFCVVTGYV class 1
PDKRNHLIKLLN class 0
RGAVRVAWYPVL class 1

Query: Check the entry WSLRFRRMMLRC : does protein stability index equal or exceed 0.5?
Result: class 0

Query: API: above_or_equal(metric=protein stability index, cutoff=0.5) for item GLVSCWIDPSMA
Result: class 1

Query: Would you say VCFWCLYVMFSL shows protein stability index at minimum 0.5?
Result: class 0

Query: Reported protein stability index at or above 0.5? LLGDFAVLTCVF
Result: class 0

Query: Dear colleague, could you confirm whether CVFFCVLVCFLS has protein stability index at or above 0.5?
Result: class 0

Query: // inclusive: protein stability index at least 0.5? input: FILLTLVFGCAS
Result: class 0

Query: Reported protein stability index at or above 0.5? FLSVLPLFAFFA
Result: class 0

Query: Is the recorded value of protein stability index equal to or greater than 0.5 for this sequence? IFRLVRVVRSSS
Result: class 0

Query: Can FFALFLPLACFC be said to have protein stability index at or above 0.5?
Result: class 0

Query: In plain terms: is recorded protein stability index at least 0.5 for RVPCCLSFVPVC ?
Result: class 1

* * *

# Tested on: Saccharomyces cerevisiae
# experiment-summary: protein stability index of tFT-peptide fusion (C-terminal peptide) (PSI (0-1 scale)); higher = more stable (slower turnover)
# applied-conditions: genetic background: wild type; temperature: 30 C
Entries and their protein stability index
Answer field: number only, no words.

GGGGEAWGGLRW 0.775

Reported protein stability index ( VRIGSEGPGREE ) = 0.677

Measured protein stability index of PPPPLLPSPFPP : 0.653

sequence RIVLLICPYPVL , protein stability index observed: 0.554

Record PPPPAPPLPPPP , field protein stability index: 0.707

LSASAWCSSLTR yielded protein stability index of 0.714

Short answer for VSWGVALAVLRT : protein stability index was 0.603

Consider LPSLRPPPCIRA . Its measured protein stability index is 0.48

* * *

# System: Saccharomyces cerevisiae
# experiment-summary: protein stability index of tFT-peptide fusion (C-terminal peptide) (PSI (0-1 scale)); higher = more stable (slower turnover)
# applied-conditions: genetic background: doa10 deletion; temperature: 30 C
# maps each entry to its protein stability index

Consider the worked cases shown below.
AALFNYVVCFCA 0.301
APPSRRLTLRLA 0.142
HCSRMIIIFLFL 0.303
AYPAHQLLVSCL 0.351
GGRHYGILDLSL 0.693

According to the records, this sequence LVCSLLVPSSFF displays protein stability index of 0.667

* * *

# Tested on: Saccharomyces cerevisiae
# experiment-summary: protein stability index of tFT-peptide fusion (C-terminal peptide) (PSI (0-1 scale)); higher = more stable (slower turnover)
# applied-conditions: genetic background: wild type; temperature: 30 C
metric: protein stability index
// no unit string in output, number only

PRRFPCRLRLGF 0.702
TGTATGTEGANY 0.698
RGLRIRFKKIDK 0.704
KNKTRSEISKNS 0.697
TVLTDKKGRVRS 0.71
PSPPPTPPPFLP 0.71

Here is another sequence to look at.
Note to self: protein stability index recorded for ALSLARVSSPLF was 0.707

* * *

# System: Saccharomyces cerevisiae
# experiment-summary: protein stability index of tFT-peptide fusion (C-terminal peptide) (PSI (0-1 scale)); higher = more stable (slower turnover)
# applied-conditions: genetic background: cdc34-1; temperature: 37 C
metric: protein stability index

# example entries with known answers
VNFVLTLYPYLV 0.512
GACRVSSCVVVC 0.504
QLIDVGLLNCAA 0.499

Pending sequence:
Per the reported Saccharomyces cerevisiae data, RGDCFLVLCVWR has protein stability index of 0.499

* * *

# Tested on: Saccharomyces cerevisiae
# experiment-summary: protein stability index of tFT-peptide fusion (C-terminal peptide) (PSI (0-1 scale)); higher = more stable (slower turnover)
# applied-conditions: genetic background: wild type; temperature: 30 C
metric: protein stability index
Would you mind answering with just the numeric figure?

Per the records, this sequence ( PPCHPPPTTSEK ) has protein stability index equal to 0.677

// recorded protein stability index for LSGVSGALVFVG : 0.676

Kindly note the recorded protein stability index for HCSRMIIIFLFL , which is 0.371

Memo: LLRPPSAPSTLL , reported protein stability index: 0.706

Documented protein stability index of SLPVLSSRTSIQ : 0.687

GVAEFDGWFCLG yielded protein stability index of 0.733

Recorded protein stability index (sequence HISTQREEIDPA ): 0.651

AIAGSLSYCWDD has a reported protein stability index of 0.678

Form: sequence = RNYEKRSIIVCK ; protein stability index = 0.497

Form: sequence = IIAVFRCCLRVY ; protein stability index = 0.168

* * *

Reported protein stability index values follow for various sequences
# Test system: Saccharomyces cerevisiae
# experiment-summary: protein stability index of tFT-peptide fusion (C-terminal peptide) (PSI (0-1 scale)); higher = more stable (slower turnover)
# applied-conditions: genetic background: wild type; temperature: 30 C
Write the number on its own, no unit after it.

Answered cases to consult:
SGSSLCSVGWLV 0.718
SPPLRSRSGSFL 0.699
LLPHCRPGSTAA 0.692
LHPPLALPRPPP 0.711
RKKRNKDARQQN 0.679

Hey, Saccharomyces cerevisiae data for RPPLSSPPPPPP : protein stability index came out at 0.701
